target: GSK3A (human); assay: radiometric filter-binding kinase assay, Kinase HotSpot; conditions: compound 0.5 µM; ATP 10 µM
# residual activity values compiled below
Assay Metric: residual activity (%)

COc1ccc2c(c[n+](C)c3c4cc5c(cc4ccc23)OCO5)c1OC; 105
O=C1NC(=O)/C(=C/c2ccc3c(c2)OC(F)(F)O3)S1; 88.1
Nc1ccc2ncnc(NCCc3ccc(Oc4ccccc4)cc3)c2c1; 110
CCCC(=O)Oc1ccc2[nH]c(C(=O)c3cc4ccccc4[nH]3)cc2c1; 94.1
Cc1ccc(Nc2nccc(N(C)c3ccc4c(C)n(C)nc4c3)n2)cc1S(N)(=O)=O; 101

----------
# residual activity values compiled below
biological target: SRPK3 (human) (UniProt Q9UPE1); assay: radiometric filter-binding kinase assay, Kinase HotSpot; conditions: compound 0.5 µM; ATP 10 µM
Sequence (Q9UPE1 whole entry, looked up): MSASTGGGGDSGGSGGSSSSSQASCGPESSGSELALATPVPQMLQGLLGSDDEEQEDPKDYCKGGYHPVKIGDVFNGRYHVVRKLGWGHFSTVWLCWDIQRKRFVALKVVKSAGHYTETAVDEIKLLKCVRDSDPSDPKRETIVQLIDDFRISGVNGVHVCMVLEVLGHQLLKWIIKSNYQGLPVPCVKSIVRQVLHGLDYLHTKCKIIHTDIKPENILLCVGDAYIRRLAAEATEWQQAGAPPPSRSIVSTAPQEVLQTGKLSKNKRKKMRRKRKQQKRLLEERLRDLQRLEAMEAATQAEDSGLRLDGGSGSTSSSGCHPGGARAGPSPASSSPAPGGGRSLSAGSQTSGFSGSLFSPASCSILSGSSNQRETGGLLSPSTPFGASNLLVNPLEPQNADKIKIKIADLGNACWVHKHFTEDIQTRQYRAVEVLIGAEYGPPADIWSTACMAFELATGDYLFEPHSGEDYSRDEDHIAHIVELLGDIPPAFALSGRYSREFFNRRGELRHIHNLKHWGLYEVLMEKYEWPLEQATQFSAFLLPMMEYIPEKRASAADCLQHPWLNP
Assay Metric: residual activity (%)

N#CC(C#N)=C(N)/C(C#N)=C/c1ccc(O)cc1; 96.4
N#C/C(=C(/N)Sc1ccc(N)cc1)c1ccccc1C(F)(F)F; 96.3
O=C1Nc2ccc(Cl)cc2/C1=C/c1cc(Cl)c(O)c(Cl)c1; 88.3
Cc1ccc(Nc2nccc(N(C)c3ccc4c(C)n(C)nc4c3)n2)cc1S(N)(=O)=O; 102
c1ccc(-c2n[nH]c3c2oc2ccccc23)cc1; 94.5
COc1ccc(COc2ccc(Cc3cnc(N)nc3N)cc2OC)cc1; 102
CCC(=O)Nc1ccc2ncnc(Nc3cccc(Br)c3)c2c1; 97
CO[C@H]1CC2CC[C@@H](C)[C@@](O)(O2)C(=O)C(=O)N2CCCC[C@H]2C(=O)OC([C@H](C)C[C@@H]2CC[C@@H](O)[C@H](OC)C2)CC(=O)[C@H](C)/C=C(\C)[C@@H](O)[C@@H](OC)C(=O)[C@H](C)C[C@H](C)/C=C/C=C/C=C/1C (some centres undefined); 97.2
O=c1cc(N2CCOCC2)oc2c1ccc1ccccc12; 105

----------
target: CLK3 (human) (UniProt P49761); test: radiometric filter-binding kinase assay, Kinase HotSpot; details: compound 0.5 µM; ATP 10 µM
Sequence (P49761 whole entry, looked up): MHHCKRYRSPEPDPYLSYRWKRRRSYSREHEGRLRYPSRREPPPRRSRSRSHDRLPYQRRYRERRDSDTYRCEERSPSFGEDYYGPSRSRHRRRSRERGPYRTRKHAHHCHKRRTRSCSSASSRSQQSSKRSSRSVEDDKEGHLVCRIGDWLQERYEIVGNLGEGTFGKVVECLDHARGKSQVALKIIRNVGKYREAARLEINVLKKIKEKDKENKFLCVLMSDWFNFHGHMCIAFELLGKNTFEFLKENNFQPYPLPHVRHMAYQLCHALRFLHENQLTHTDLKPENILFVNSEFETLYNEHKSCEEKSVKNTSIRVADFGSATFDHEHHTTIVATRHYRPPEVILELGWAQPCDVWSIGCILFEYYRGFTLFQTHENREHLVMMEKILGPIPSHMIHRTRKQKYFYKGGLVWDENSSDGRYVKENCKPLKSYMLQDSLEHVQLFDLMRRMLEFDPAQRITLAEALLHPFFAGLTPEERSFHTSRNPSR
Assay Metric: residual activity (%)

c1ccc(-c2n[nH]cc2-c2ccnc3ccccc23)nc1; 105
CC#CC(=O)Nc1cc2c(Nc3ccc(F)c(Cl)c3)ncnc2cn1; 47.1
CCCC(=O)Oc1ccc2[nH]c(C(=O)c3cc4ccccc4[nH]3)cc2c1; 96.9
CCN(CC)C(=O)c1ccc(Nc2nc(OCC3CCCCC3)c3nc[nH]c3n2)cc1; 84.1
Cc1ccc(S(=O)(=O)/C=C/C#N)cc1; 106
CNC(=O)c1cc(Oc2ccc(NC(=O)Nc3ccc(Cl)c(C(F)(F)F)c3)cc2)ccn1; 99.3
Nc1ccc2ncnc(NCCc3ccc(Oc4ccccc4)cc3)c2c1; 117
O=C(Nc1cccc(Nc2nccc(Nc3cccc(C(F)(F)F)c3)n2)c1)C1CC1; 104
CC(C)N(CCC(=O)c1ccc2ccccc2c1)Cc1ccccc1; 99.6
N#C/C(=C(/N)Sc1ccc(N)cc1)c1ccccc1C(F)(F)F; 103
CCC(=O)Nc1ccc2ncnc(Nc3cccc(Br)c3)c2c1; 99.3
N#CC(C#N)=C(N)/C(C#N)=C/c1ccc(O)cc1; 100
Nc1ncnc2[nH]nc(Nc3ccc(F)cc3)c12; 112
CO[C@H]1CC2CC[C@@H](C)[C@@](O)(O2)C(=O)C(=O)N2CCCC[C@H]2C(=O)OC([C@H](C)C[C@@H]2CC[C@@H](O)[C@H](OC)C2)CC(=O)[C@H](C)/C=C(\C)[C@@H](O)[C@@H](OC)C(=O)[C@H](C)C[C@H](C)/C=C/C=C/C=C/1C (some centres undefined); 94.4

----------
target: CSNK1D (human); experiment: radiometric filter-binding kinase assay, Kinase HotSpot; details: compound 0.5 µM; ATP 10 µM
Assay Metric: residual activity

COc1cc2ncnc(Nc3cccc(Cl)c3)c2cc1OC; 100%
Cc1ccc(NC2=CC(=O)c3sc(C)nc3C2=O)cc1; 101%
CC(=O)c1ccc(N2CCOCC2)cc1O; 100%
CCC(=O)Nc1ccc2ncnc(Nc3cccc(Br)c3)c2c1; 96.9%
Nc1ccc2ncnc(NCCc3ccc(Oc4ccccc4)cc3)c2c1; 100%
O=C(Nc1cccc(Nc2nccc(Nc3cccc(C(F)(F)F)c3)n2)c1)C1CC1; 111%

----------
target: STK17A (human); assay: radiometric filter-binding kinase assay, Kinase HotSpot; conditions: compound 0.5 µM; ATP 10 µM
Threshold check on residual activity: at or above 90% gives condition met, strictly below gives condition not met.

CCN(CC)C(=O)c1ccc(Nc2nc(OCC3CCCCC3)c3nc[nH]c3n2)cc1; condition not met
CNc1cc2c(Nc3cccc(Br)c3)ncnc2cn1; condition met
CC(C)N(CCC(=O)c1ccc2ccccc2c1)Cc1ccccc1; condition met
CC[n+]1c(/C=C/N(C)c2ccccc2)n(-c2ccccc2)c2ccc(-c3nc4ccccc4s3)cc21; condition met
CC(=O)c1ccc(N2CCOCC2)cc1O; condition met
CCN(CC)CCNC(=O)c1c(C)[nH]c(/C=C2\C(=O)Nc3ccc(Cl)cc32)c1C; condition not met
c1ccc(-c2n[nH]cc2-c2ccnc3ccccc23)nc1; condition met
c1ccc(-c2n[nH]c3c2oc2ccccc23)cc1; condition not met
Oc1cccc(-c2nc(N3CCOCC3)c3oc4ncccc4c3n2)c1; condition met

----------
molecular target: PNCK (human); assay: radiometric filter-binding kinase assay, Kinase HotSpot; conditions: compound 0.5 µM; ATP 10 µM
Assay Metric: residual activity (%)

Cc1[nH]c(/C=C2\C(=O)Nc3ccc(S(=O)(=O)N(C)c4cccc(Cl)c4)cc32)c(C)c1C(=O)N1CCN(C)CC1; 101
CCN(CC)CCNC(=O)c1c(C)[nH]c(/C=C2\C(=O)Nc3ccc(Cl)cc32)c1C; 70.5
CC#CC(=O)Nc1cc2c(Nc3ccc(F)c(Cl)c3)ncnc2cn1; 99.4
CC[n+]1c(/C=C/N(C)c2ccccc2)n(-c2ccccc2)c2ccc(-c3nc4ccccc4s3)cc21; 114
COc1ccc2c(c[n+](C)c3c4cc5c(cc4ccc23)OCO5)c1OC; 103
Nc1ccc2ncnc(NCCc3ccc(Oc4ccccc4)cc3)c2c1; 98.5
N#C/C(=C(/N)Sc1ccc(N)cc1)c1ccccc1C(F)(F)F; 98.9
Oc1cccc(-c2nc(N3CCOCC3)c3oc4ncccc4c3n2)c1; 96.7
Cc1ccc(S(=O)(=O)/C=C/C#N)cc1; 107
O=C1NC(=O)/C(=C/c2ccc3c(c2)OC(F)(F)O3)S1; 96

----------
# residual activity values compiled below
biological target: PNCK (human) (UniProt Q6P2M8); assay: radiometric filter-binding kinase assay, Kinase HotSpot; conditions: compound 0.5 µM; ATP 10 µM
Sequence (Q6P2M8 whole entry, looked up): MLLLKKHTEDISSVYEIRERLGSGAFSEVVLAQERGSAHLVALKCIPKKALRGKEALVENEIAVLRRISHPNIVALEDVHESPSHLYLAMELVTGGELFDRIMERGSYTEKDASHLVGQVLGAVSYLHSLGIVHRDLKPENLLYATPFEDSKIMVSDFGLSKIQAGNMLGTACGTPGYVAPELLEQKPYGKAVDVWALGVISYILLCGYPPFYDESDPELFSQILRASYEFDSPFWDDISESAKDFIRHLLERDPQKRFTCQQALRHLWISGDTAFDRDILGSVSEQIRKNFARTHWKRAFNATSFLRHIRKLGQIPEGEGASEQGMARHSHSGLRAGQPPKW
Assay Metric: residual activity (%)

Nc1cccc(-c2cc3c(Oc4cccc(O)c4)ncnc3[nH]2)c1; 98.2
N#CC(C#N)=C(N)/C(C#N)=C/c1ccc(O)cc1; 97.3
Cc1ccc(Nc2nccc(N(C)c3ccc4c(C)n(C)nc4c3)n2)cc1S(N)(=O)=O; 95.9
CNc1cc2c(Nc3cccc(Br)c3)ncnc2cn1; 100
O=c1cc(N2CCOCC2)oc2c1ccc1ccccc12; 97.4
CCN(CC)CCNC(=O)c1c(C)[nH]c(/C=C2\C(=O)Nc3ccc(F)cc32)c1C; 98.5
CCOC(=O)c1c(C)[nH]c(/C=C2\C(=O)Nc3ccccc32)c1C; 88.6
CCC(=O)Nc1ccc2ncnc(Nc3cccc(Br)c3)c2c1; 96
CC(C)N(CCC(=O)c1ccc2ccccc2c1)Cc1ccccc1; 102
O=C1NC(=O)C(c2cn(CCCn3ccnc3)c3ccccc23)=C1Nc1ccccc1; 90.6
Nc1ncnc2c1c(-c1ccc(Oc3ccccc3)cc1)cn2C1CCCC1; 96.2
O=C1NC(=O)c2c1c1c3ccccc3n3c1c1c2c2ccccc2n1C1CCC3O1; 50.5
O=C1Nc2ccc(Cl)cc2/C1=C/c1cc(Cl)c(O)c(Cl)c1; 94.2
CCCC(=O)Oc1ccc2[nH]c(C(=O)c3cc4ccccc4[nH]3)cc2c1; 99.4
c1ccc(-c2n[nH]cc2-c2ccnc3ccccc23)nc1; 98.3
COc1cc2ncnc(Nc3cccc(Cl)c3)c2cc1OC; 89.6
O=S(=O)(c1cccc2cnccc12)N1CCCNCC1; 91.6

----------
molecular target: MAP4K4 (human); test: radiometric filter-binding kinase assay, Kinase HotSpot; conditions: compound 0.5 µM; ATP 10 µM
Assay Metric: residual activity (%)

O=c1cc(N2CCOCC2)oc2c1ccc1ccccc12; 89.3
Nc1ncnc2c1c(-c1ccc(Oc3ccccc3)cc1)cn2C1CCCC1; 98.8
O=S(=O)(c1cccc2cnccc12)N1CCCNCC1; 44.1
c1ccc(-c2n[nH]cc2-c2ccnc3ccccc23)nc1; 48.3
CCC(=O)Nc1ccc2ncnc(Nc3cccc(Br)c3)c2c1; 91.1
CCN(CC)CCNC(=O)c1c(C)[nH]c(/C=C2\C(=O)Nc3ccc(F)cc32)c1C; 12.4
COc1cc2ncnc(Nc3cccc(Cl)c3)c2cc1OC; 68.1
Nc1cccc(-c2cc3c(Oc4cccc(O)c4)ncnc3[nH]2)c1; 12.5
CNC(=O)c1cc(Oc2ccc(NC(=O)Nc3ccc(Cl)c(C(F)(F)F)c3)cc2)ccn1; 96.1
CCCC(=O)Oc1ccc2[nH]c(C(=O)c3cc4ccccc4[nH]3)cc2c1; 97.3
O=C1NC(=O)C(c2cn(CCCn3ccnc3)c3ccccc23)=C1Nc1ccccc1; 64
Oc1cccc(-c2nc(N3CCOCC3)c3oc4ncccc4c3n2)c1; 91.4
Nc1ccc2ncnc(NCCc3ccc(Oc4ccccc4)cc3)c2c1; 99.2
O=C1NC(=O)c2c1c1c3ccccc3n3c1c1c2c2ccccc2n1C1CCC3O1; 0.995
COc1ccc2c(c[n+](C)c3c4cc5c(cc4ccc23)OCO5)c1OC; 84.9
CO[C@H]1CC2CC[C@@H](C)[C@@](O)(O2)C(=O)C(=O)N2CCCC[C@H]2C(=O)OC([C@H](C)C[C@@H]2CC[C@@H](O)[C@H](OC)C2)CC(=O)[C@H](C)/C=C(\C)[C@@H](O)[C@@H](OC)C(=O)[C@H](C)C[C@H](C)/C=C/C=C/C=C/1C (stereo partly specified); 87.7
CCN(CC)CCNC(=O)c1c(C)[nH]c(/C=C2\C(=O)Nc3ccc(Cl)cc32)c1C; 4.33
c1ccc(-c2n[nH]c3c2oc2ccccc23)cc1; 36.1
CNc1cc2c(Nc3cccc(Br)c3)ncnc2cn1; 86.9
O=C1NC(=O)/C(=C/c2ccc3c(c2)OC(F)(F)O3)S1; 95.3
N#C/C(=C(/N)Sc1ccc(N)cc1)c1ccccc1C(F)(F)F; 93.4
